Target: c-Cbl (RING) protein (Homo sapiens)
Construct: c-Cbl (RING) protein including the linker and RING domain (codon 358–457) was tagged with glutathione S-transferase (GST); GST; made in house
Sequence (P22681 358-457): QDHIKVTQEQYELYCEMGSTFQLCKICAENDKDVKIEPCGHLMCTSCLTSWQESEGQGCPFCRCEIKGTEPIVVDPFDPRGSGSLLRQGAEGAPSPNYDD
Test: Competitive FP assay/screen: displacement of probe 1 from c-Cbl (RING) protein
Format: binding
Conditions: detergent-present system (0.01% Triton X-100); c-Cbl (RING) protein 3 µmol/L + 100 nmol/L probe 1; read-out: IC50, unlabeled peptide competing with probe 1
Residues, ends and D or L forms follow the SMILES beside them.
quantity: pIC50
pIC50 field: float, defined as -log10 of concentration (mol/L).

pIC50 value, target or system c-Cbl (RING) protein (Homo sapiens), for CC(=O)N1CCC[C@H]1C(=O)N[C@@H](Cc1ccccc1)C(=O)N[C@@H](CCCCN)C(=O)N1CCC[C@H]1C(=O)N1CCC[C@H]1C(N)=O [Peptide 1, Ac-PFKPP-NH2] (Ac-PFKPP-NH2) : 5.97
